assay: physchem; conditions: octanol/buffer
quantity: logP

Sample answers from the record:
CNCc1ccc(Cl)c(CN(C(=O)[C@H]2CNCC(=O)N2c2ccc(OCCCOCc3ccccc3)cc2)C2CC2)c1 : 4.92
CN(CCc1ccccc1)C(=O)[C@H]1CNCC(=O)N1c1ccc(CCCOc2c(F)ccc(F)c2F)cc1 : 4.57

[A] O=C([C@H]1CNCC(=O)N1c1ccc(CCCOc2c(F)ccc(F)c2F)cc1)N(Cc1cc(CNCC(F)F)ccc1Cl)C1CC1
[B] COc1ccccc1COCCCOc1ncc(N2C(=O)CNC[C@@H]2C(=O)N(Cc2cccc(Cl)c2)C2CC2)cn1
Which has the higher logP, A or B ? Which one? Tell me its label.
A
(A: 5.96, B: 3.09)

###

experiment: physchem; conditions: octanol/buffer
quantity: logP

Use these answered entries as a reference point.
CNCCc1ccc(Cl)c(CN(C(=O)[C@H]2CNCC(=O)N2c2ccc(OCCCOCc3ccccc3)cc2)C2CC2)c1 : 5.01
COCCc1ccc(Cl)c(CN(C(=O)[C@H]2CNCC(=O)N2c2ccc(OCCOc3c(Cl)cc(C)cc3Cl)cc2)C2CC2)c1 : 6.05
Cc1cc(Cl)c(OCCOc2ccc(N3C(=O)CNC[C@@H]3C(=O)N(Cc3cccc(Cl)c3)C3CC3)cn2)c(Cl)c1 : 5.04

[1] COc1ccccc1COCCCOc1ccc(N2C(=O)CNC[C@@H]2C(=O)N(C)Cc2ccccc2)cc1
[2] CCC(=O)NCc1ccc(Cl)c(CN(C(=O)[C@H]2CNCC(=O)N2c2ccc(CCCOc3c(F)ccc(F)c3F)cc2)C2CC2)c1
// which entry has the larger logP value, 1 or 2 ? Reply briefly: the label of your chosen item.
2
(2: 5.67, 1: 3.82)

[1] COC(=O)NCCc1ccc(Cl)c(CN(C(=O)[C@H]2CNCC(=O)N2c2ccc(OCCCOCc3ccccc3)cc2)C2CC2)c1
[2] COc1c(CN(C(=O)[C@H]2CNCC(=O)N2c2ccc(OCCOc3c(Cl)cc(C)cc3Cl)nc2)C2CC2)ccnc1C
Which value of logP is smaller, the one for 1 or the one for 2 ? Mark your answer with the label of the selected entry.
2

[I] CCC(=O)NCc1ccc(Cl)c(CN(C(=O)[C@H]2CNCC(=O)N2c2cnc(OCCCOCc3ccccc3OC)nc2)C2CC2)c1
[II] COCCc1ccc(Cl)c(CN(C(=O)[C@H]2CNCC(=O)N2c2ccc(CCCOc3c(F)ccc(F)c3F)cc2)C2CC2)c1
Returns: the argument ( I or II ) having the larger logP. Output the label that corresponds to your choice.
II
(II: 5.94, I: 2.98)

###

test: physchem; conditions: octanol/buffer
quantity: logP

[A] COCCCc1ccc(Cl)c(CN(C(=O)[C@H]2CNCC(=O)N2c2ccc(CCCOc3c(F)ccc(F)c3F)cc2)C2CC2)c1
[B] CC(=O)NCCc1ccc(Cl)c(CN(C(=O)[C@H]2CNCC(=O)N2c2ccc(COC(=O)c3ccccc3)cc2)C2CC2)c1
Please choose the item with the lower logP value from this pair: A and B Mark your answer with the label of the selected entry.
B
(B: 4.28, A: 6.39)

[P] COCCCc1ccc(Cl)c(CN(C(=O)[C@H]2CNCC(=O)N2c2ccc(OCCCOCc3ccccc3OC)cc2)C2CC2)c1
[Q] COC(=O)NCCc1ccc(Cl)c(CN(C(=O)[C@H]2CNCC(=O)N2c2cnc(OCCCOCc3ccccc3OC)nc2)C2CC2)c1
[R] COc1ccccc1COCCCOc1ncc(N2C(=O)CNC[C@@H]2C(=O)N(C)Cc2ccccc2)cn1
# rank_down: sort by logP, max first Answer by writing out the labels in the requested order.
P, Q, R

[A] COc1ccccc1COCCCOc1ccc(N2C(=O)CNC[C@@H]2C(=O)N(Cc2cccc(Cl)c2)C2CC2)cc1
[B] COc1ccccc1COCCCOc1ncc(N2C(=O)CNC[C@@H]2C(=O)N(C)Cc2ccccc2Cl)cn1
I'm curious, which of these has a smaller logP number: A or B ? Which one? Tell me its label.
B

[a] O=C([C@H]1CNCC(=O)N1c1ccc(CCCOc2cccc(Cl)c2)cc1)N(Cc1cc(CNCCF)ccc1Cl)C1CC1
[b] COc1ccccc1COCCCOc1ncc(N2C(=O)CNC[C@@H]2C(=O)N(Cc2cc(CCNC(=O)COC(C)(C)C)ccc2Cl)C2CC2)cn1
Please choose the item with the lower logP value from this pair: a and b Answer by stating the label of the chosen item.
b
(b: 3.6, a: 5.84)

Ref: ChEMBL document CHEMBL1944551
